- Target under test: T1, mouse PK2 receptor (mouse, UniProt Q8K458 1-381)
- T1 construct: Heptahelical G-protein-coupled receptor; also called mouse PKR2
- T1 sequence (Q8K458 whole entry): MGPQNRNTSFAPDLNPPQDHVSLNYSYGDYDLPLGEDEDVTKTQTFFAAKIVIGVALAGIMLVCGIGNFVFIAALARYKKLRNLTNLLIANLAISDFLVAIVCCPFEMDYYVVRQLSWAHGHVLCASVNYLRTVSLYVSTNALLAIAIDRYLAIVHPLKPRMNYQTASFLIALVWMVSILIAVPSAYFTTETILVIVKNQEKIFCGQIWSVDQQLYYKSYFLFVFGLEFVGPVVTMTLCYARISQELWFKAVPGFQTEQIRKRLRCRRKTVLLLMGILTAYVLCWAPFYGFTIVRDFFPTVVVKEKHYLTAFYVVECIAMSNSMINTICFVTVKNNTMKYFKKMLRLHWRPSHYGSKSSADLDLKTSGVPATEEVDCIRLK
- Test: radioligand binding assay with iodinated PK2 (FIG. 11)
Measurement type: Kd

| Binder | Result |
| --- | --- |
| ^125I-human PK2 (ligand, radioiodinated with ^125I (paragraph 77 describes human PK2 radioiodinated at the core Tyr, citing Li et al. 2001), also called iodinated PK2) AVITGACDKDSQCGGGMCCAVSIWVKSIRICTPMGKLGDSCHPLTRKVPFFGRRMHHTCPCLPGLACLRTSFNRFICLAQK | ~1 nM |
